Values from patent US11116757B2

Target: DCN1-UBC12 interaction (Homo sapiens (Human))
Sequence (Q96GG9 60-248 limits assumed): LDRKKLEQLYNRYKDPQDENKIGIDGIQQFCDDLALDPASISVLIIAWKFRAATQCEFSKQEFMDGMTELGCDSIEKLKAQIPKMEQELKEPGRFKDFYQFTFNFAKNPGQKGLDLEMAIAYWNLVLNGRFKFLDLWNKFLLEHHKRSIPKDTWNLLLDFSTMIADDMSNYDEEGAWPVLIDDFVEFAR
Experiment: biochemical
Format: binding
Conditions: read-out: TR-FRET IC50
reported endpoint: IC50 (µM)

[[record]]
molecule = "CCOc1ccccc1NC(=O)N(Cc1ccc(C)o1)C1CCN(C(C)=O)CC1 [B88]"
reported_endpoint = "IC50"
censoring_operator = ">"
readout_number = 67.6

[[record]]
molecule = "CCCC(C)N1CCC(N(Cc2ccccc2)C(=O)Nc2cc(C)ccc2F)CC1 (stereo not shown) [A181]"
reported_endpoint = "IC50"
censoring_operator = "="
readout_number = 19.8

[[record]]
molecule = "Cc1ccccc1CN1CCC(NC(=O)Nc2cccc(C(F)(F)F)c2)CC1 [A135]"
reported_endpoint = "IC50"
censoring_operator = "="
readout_number = 3.35

[[record]]
molecule = "O=C(Nc1cc(F)cc(C(F)(F)F)c1)N(Cc1ccccc1)C1CCN(Cc2cccc(Oc3ccccc3)c2)CC1 [A217]"
reported_endpoint = "IC50"
censoring_operator = ">"
readout_number = 23.9

[[record]]
molecule = "O=C(Nc1cccnc1Cl)NC1CCN(C(=O)c2ccccc2F)CC1 [B30]"
reported_endpoint = "IC50"
censoring_operator = ">"
readout_number = 53.3

[[record]]
molecule = "CCCC(C)N1CCC(N(Cc2ccccc2)C(=O)Nc2cc(Cl)cc(C(F)(F)F)c2)CC1 (stereo not shown) [A113]"
reported_endpoint = "IC50"
censoring_operator = "="
readout_number = 2.35

[[record]]
molecule = "CCCC(C)N1CCC(N(Cc2ccccc2)C(=O)Nc2cccc3cnccc23)CC1 (stereo not shown) [A244]"
reported_endpoint = "IC50"
censoring_operator = ">"
readout_number = 53.6

[[record]]
molecule = "CCOc1ccccc1NC(=O)N(C(C)C)C1CCN(C(C)=O)CC1 [B67]"
reported_endpoint = "IC50"
censoring_operator = ">"
readout_number = 67.6

[[record]]
molecule = "CC(=O)N1CCC(N(Cc2ccco2)C(=O)Nc2ccc(C)c(C)c2)CC1 [B69]"
reported_endpoint = "IC50"
censoring_operator = ">"
readout_number = 67.6

[[record]]
molecule = "O=C(Nc1cc(F)cc(C(F)(F)F)c1)N(Cc1ccccc1)C1CCN(C/C=C/c2ccccc2)CC1 [A143]"
reported_endpoint = "IC50"
censoring_operator = "="
readout_number = 4.27

[[record]]
molecule = "O=C(Nc1cccc(I)c1)NC1CCN(Cc2ccccc2)CC1 [B98]"
reported_endpoint = "IC50"
censoring_operator = ">"
readout_number = 67.6

[[record]]
molecule = "O=C(Nc1cc(F)cc(C(F)(F)F)c1)N(Cc1ccccc1)C1CCN(CC2CCOC2)CC1 (stereo not shown) [A144]"
reported_endpoint = "IC50"
censoring_operator = "="
readout_number = 4.49

[[record]]
molecule = "COc1ccc(CN(C(=O)Nc2ccccc2Cl)C2CCN(C(C)=O)CC2)cc1 [B13]"
reported_endpoint = "IC50"
censoring_operator = "="
readout_number = 37.5

[[record]]
molecule = "C=CC(=O)NCCN(C(=O)Nc1cccc(C(F)(F)F)c1)C1CCN(C(C)CCC)CC1 (stereo not shown) [drawing 835]"
reported_endpoint = "IC50"
censoring_operator = "="
readout_number = 33.8

[[record]]
molecule = "CCCC(C)N1CCC(N(Cc2ccccc2)C(=O)Nc2ccc(OC)cc2OC)CC1 (stereo not shown) [A196]"
reported_endpoint = "IC50"
censoring_operator = ">"
readout_number = 11.8

[[record]]
molecule = "CCCC(C)N1CCC(N(Cc2ccccc2)C(=O)Nc2cccc3cccnc23)CC1 (stereo not shown) [A139]"
reported_endpoint = "IC50"
censoring_operator = "="
readout_number = 4.13

[[record]]
molecule = "O=C(c1ccc(Cl)cc1)N1CCC(c2nc3ccccc3s2)CC1 [D20]"
reported_endpoint = "IC50"
censoring_operator = ">"
readout_number = 67.3

[[record]]
molecule = "O=C(NCCN1CCN(Cc2ccccc2C(F)(F)F)CC1)Nc1ccccc1 [B48]"
reported_endpoint = "IC50"
censoring_operator = ">"
readout_number = 67

[[record]]
molecule = "CCCC(C)N1CCC(N(Cc2ccccc2)C(=O)Nc2cc(C(F)(F)F)ccc2Cl)CC1 (stereo not shown) [A101]"
reported_endpoint = "IC50"
censoring_operator = "="
readout_number = 1.6


---

Biological target: DCN1-UBC12 interaction (Homo sapiens (Human))
Assay: biochemical
Assay type: binding
Details: read-out: TR-FRET IC50
Assign labels as follows, please: Satisfied for IC50 below 10 µM; Not satisfied for IC50 equal to or exceeding 10 µM.

[[record]]
molecule = "CCCC(C)N1CCC(N(Cc2ccccc2)C(=O)Nc2cc(OC)c(OC)c(OC)c2)CC1 (stereo not shown)"
assayed_system = "DCN1-UBC12 interaction (Homo sapiens (Human))"
label_value = "Not satisfied"

[[record]]
molecule = "COc1ccc(NC(=O)N(Cc2ccco2)C2CCN(C(C)=O)CC2)cc1"
assayed_system = "DCN1-UBC12 interaction (Homo sapiens (Human))"
label_value = "Not satisfied"

[[record]]
molecule = "CCCC(C)N1CCC(N(Cc2ccccc2)C(=O)Nc2ccccc2OC(F)(F)F)CC1 (stereo not shown)"
assayed_system = "DCN1-UBC12 interaction (Homo sapiens (Human))"
label_value = "Not satisfied"

[[record]]
molecule = "CCCC(C)N1CCC(N(Cc2ccccc2)C(=O)Nc2cc(Cl)ccc2Cl)CC1 (stereo not shown)"
assayed_system = "DCN1-UBC12 interaction (Homo sapiens (Human))"
label_value = "Satisfied"

[[record]]
molecule = "CCCN1CCC(NC(=O)Nc2ccc(Cl)cc2Cl)CC1"
assayed_system = "DCN1-UBC12 interaction (Homo sapiens (Human))"
label_value = "Not satisfied"

[[record]]
molecule = "CCCC(C)N1CCC(N(Cc2ccccc2)C(=O)Nc2ccc(C)cc2Cl)CC1 (stereo not shown)"
assayed_system = "DCN1-UBC12 interaction (Homo sapiens (Human))"
label_value = "Not satisfied"

[[record]]
molecule = "CCCC(C)N1CCC(N(Cc2ccccc2)C(=O)Nc2ccc(Oc3ccc(Cl)cc3)cc2)CC1 (stereo not shown)"
assayed_system = "DCN1-UBC12 interaction (Homo sapiens (Human))"
label_value = "Satisfied"

[[record]]
molecule = "CCCC1CCC(N(Cc2ccccc2)C(=O)c2cccc(C(F)(F)F)c2)CC1 (stereo not shown)"
assayed_system = "DCN1-UBC12 interaction (Homo sapiens (Human))"
label_value = "Satisfied"

[[record]]
molecule = "O=C(Nc1cc(F)cc(C(F)(F)F)c1)N(Cc1ccccc1)C1CCN(Cc2cnccn2)CC1"
assayed_system = "DCN1-UBC12 interaction (Homo sapiens (Human))"
label_value = "Not satisfied"

[[record]]
molecule = "CCCC(C)N1CCC(N(Cc2ccccc2)C(=O)Nc2cccc(F)c2Cl)CC1 (stereo not shown)"
assayed_system = "DCN1-UBC12 interaction (Homo sapiens (Human))"
label_value = "Not satisfied"

[[record]]
molecule = "COc1ccccc1NC(=O)N(Cc1ccco1)C1CCN(C(C)=O)CC1"
assayed_system = "DCN1-UBC12 interaction (Homo sapiens (Human))"
label_value = "Not satisfied"

[[record]]
molecule = "CCCC(C)N1CCC(N(Cc2ccccc2)C(=O)Nc2ccc3c(c2)OCO3)CC1 (stereo not shown)"
assayed_system = "DCN1-UBC12 interaction (Homo sapiens (Human))"
label_value = "Satisfied"

[[record]]
molecule = "Cc1cccc(NC(=O)NC2CCN(C(=O)c3ccccc3)CC2)c1"
assayed_system = "DCN1-UBC12 interaction (Homo sapiens (Human))"
label_value = "Not satisfied"

[[record]]
molecule = "CCCC(C)N1CCC(N(Cc2ccccc2)C(=O)Nc2ccc(O)c(Cl)c2)CC1 (stereo not shown)"
assayed_system = "DCN1-UBC12 interaction (Homo sapiens (Human))"
label_value = "Not satisfied"

[[record]]
molecule = "CCCC(C)N1CCC(N(Cc2ccccc2)C(=O)Nc2cc(OC)cc(OC)c2)CC1 (stereo not shown)"
assayed_system = "DCN1-UBC12 interaction (Homo sapiens (Human))"
label_value = "Not satisfied"

[[record]]
molecule = "COc1ccc(CN(C(=O)Nc2ccccc2F)C2CCN(C(C)=O)CC2)cc1"
assayed_system = "DCN1-UBC12 interaction (Homo sapiens (Human))"
label_value = "Not satisfied"

[[record]]
molecule = "O=C(c1ccc(Br)cc1)N1CCC(c2nc3ccccc3s2)CC1"
assayed_system = "DCN1-UBC12 interaction (Homo sapiens (Human))"
label_value = "Not satisfied"

[[record]]
molecule = "CCCC(C)N1CCC(N(Cc2ccc3c(c2)OCO3)C(=O)Nc2cc(F)cc(C(F)(F)F)c2)CC1 (stereo not shown)"
assayed_system = "DCN1-UBC12 interaction (Homo sapiens (Human))"
label_value = "Satisfied"

[[record]]
molecule = "O=C(Nc1cccc(C(F)(F)F)c1)NC1CCN(Cc2ccccc2F)CC1"
assayed_system = "DCN1-UBC12 interaction (Homo sapiens (Human))"
label_value = "Not satisfied"


---

Listing: IC50 of selected compounds
Target: DCN1-UBC12 interaction (Homo sapiens (Human))
Experiment: biochemical
Format: binding
Details: Table 6, commercial compounds; read-out: TR-FRET IC50
reported endpoint: IC50

[[record]]
chemical_string = "CCN(CCN(C)C)C(=O)c1cnn(-c2ncc(C)c(-c3cccs3)n2)c1C1CC1"
assayed_system = "DCN1-UBC12 interaction (Homo sapiens (Human))"
result = "> 67.6 µM"

[[record]]
chemical_string = "C=CCNC(=O)c1cnn(-c2ncc(C)c(-c3cccs3)n2)c1C"
assayed_system = "DCN1-UBC12 interaction (Homo sapiens (Human))"
result = "> 67.6 µM"

[[record]]
chemical_string = "CC(=O)N1CCN(C(=O)c2cnn(-c3nccc(-c4cccs4)n3)c2C2CC2)CC1"
assayed_system = "DCN1-UBC12 interaction (Homo sapiens (Human))"
result = "61.6 µM"

[[record]]
chemical_string = "CCN(CC)CCNC(=O)c1cnn(-c2ncc(C)c(-c3cccs3)n2)c1C1CC1"
assayed_system = "DCN1-UBC12 interaction (Homo sapiens (Human))"
result = "> 37.4 µM"

[[record]]
chemical_string = "CCN(CC)CCN(C)C(=O)c1cnn(-c2nccc(-c3cccs3)n2)c1C1CC1"
assayed_system = "DCN1-UBC12 interaction (Homo sapiens (Human))"
result = "> 67.6 µM"

[[record]]
chemical_string = "CCCN1CCN(C(=O)c2cnn(-c3nccc(-c4cccs4)n3)c2C2CC2)CC1"
assayed_system = "DCN1-UBC12 interaction (Homo sapiens (Human))"
result = "> 67.6 µM"

[[record]]
chemical_string = "CCN(CC)C(=O)c1cnn(-c2ncc(C)c(-c3cccs3)n2)c1C"
assayed_system = "DCN1-UBC12 interaction (Homo sapiens (Human))"
result = "> 67.6 µM"

[[record]]
chemical_string = "CSCCCNC(=O)c1cnn(-c2nccc(-c3cccs3)n2)c1C"
assayed_system = "DCN1-UBC12 interaction (Homo sapiens (Human))"
result = "> 67.6 µM"

[[record]]
chemical_string = "C=CCN(CC=C)C(=O)c1cnn(-c2ncc(C)c(-c3cccs3)n2)c1C"
assayed_system = "DCN1-UBC12 interaction (Homo sapiens (Human))"
result = "> 67.6 µM"

[[record]]
chemical_string = "CCCN1CCN(C(=O)c2cnn(-c3nccc(-c4cccs4)n3)c2C)CC1"
assayed_system = "DCN1-UBC12 interaction (Homo sapiens (Human))"
result = "> 68 µM"

[[record]]
chemical_string = "CC(C)c1c(C(=O)N2CCN(C(C)C)CC2)cnn1-c1nccc(-c2cccs2)n1"
assayed_system = "DCN1-UBC12 interaction (Homo sapiens (Human))"
result = "> 77 µM"

[[record]]
chemical_string = "CCN(CC)CCNC(=O)c1cnn(-c2nccc(-c3cccs3)n2)c1C1CC1"
assayed_system = "DCN1-UBC12 interaction (Homo sapiens (Human))"
result = "> 67.6 µM"

[[record]]
chemical_string = "CC(C)c1c(C(=O)N2CCN(CCO)CC2)cnn1-c1nccc(-c2cccs2)n1"
assayed_system = "DCN1-UBC12 interaction (Homo sapiens (Human))"
result = "21.3 µM"

[[record]]
chemical_string = "COCc1c(C(=O)N2CCN(C(C)C)CC2)cnn1-c1ncc(C)c(-c2cccs2)n1"
assayed_system = "DCN1-UBC12 interaction (Homo sapiens (Human))"
result = "49.2 µM"

[[record]]
chemical_string = "Cc1cnc(-n2ncc(C(=O)N3CCN(C)CC3)c2C2CC2)nc1-c1cccs1"
assayed_system = "DCN1-UBC12 interaction (Homo sapiens (Human))"
result = "> 67.6 µM"

[[record]]
chemical_string = "CCCN1CCN(C(=O)c2cnn(-c3nccc(-c4cccs4)n3)c2COC)CC1"
assayed_system = "DCN1-UBC12 interaction (Homo sapiens (Human))"
result = "> 16.7 µM"

[[record]]
chemical_string = "CCOc1ccccc1N1CCN(C(=O)c2cnn(-c3nccc(-c4ccco4)n3)c2C)CC1"
assayed_system = "DCN1-UBC12 interaction (Homo sapiens (Human))"
result = "25 µM"

[[record]]
chemical_string = "CCCN1CCN(C(=O)c2cnn(-c3ncc(C)c(-c4cccs4)n3)c2COC)CC1"
assayed_system = "DCN1-UBC12 interaction (Homo sapiens (Human))"
result = "26 µM"

[[record]]
chemical_string = "CCN(CC)C(=O)c1cnn(-c2nccc(-c3cccs3)n2)c1C"
assayed_system = "DCN1-UBC12 interaction (Homo sapiens (Human))"
result = "63 µM"

